# credit: patent US20250066349A1

Molecular target: UniProtKB Q13627
Assay: DYRK1A Inhibition Assay
Type: biochemical
Conditions: Compounds of Formula (I); DYRK1A 1 nM, ATP 20 μM, Ser/Thr 18 peptide 2 μM, 90 minutes; read-out: DYRK1 IC50
METRIC NAME: IC50

structure_as_smiles=Cn1cc(-c2ccc3cnc4ncn(C5CCC5)c4c3c2)cn1 value_measured="10 to 100 nM"
structure_as_smiles=Cn1cc(-c2ccc3cnc4occc4c3c2)cn1 value_measured="10 to 100 nM"
structure_as_smiles=O=C(O)c1ccc2c(cnc3c2cnn3CC2CCOCC2)c1 value_measured="100 to 1000 nM"
structure_as_smiles=Cc1nc2ncc3ccc(-c4cnn(C)c4)cc3c2s1 value_measured="100 to 1000 nM"
structure_as_smiles=C(#CC1CCOCC1)c1ncc(-c2ccc3cnc4[nH]ccc4c3c2)s1 value_measured="≤ 10 nM"
structure_as_smiles=Cn1ccc2c3cc(-c4cnc(C#CC5CCOCC5)s4)ccc3cnc21 value_measured="10 to 100 nM"
structure_as_smiles=CN1CCC(c2cc3c(ncc4ccc(-c5cnn(C)c5)cc43)[nH]2)CC1 value_measured="≤ 10 nM"
structure_as_smiles=Cc1c(C2CCN(CCF)CC2)[nH]c2ncc3ccc(-c4cnn(C)c4)cc3c12 value_measured="≤ 10 nM"
structure_as_smiles=O=C1Cc2c(ncc3cc(-c4cnco4)ccc23)N1 value_measured="100 to 1000 nM"
structure_as_smiles=Cc1c(C2CCN(C)CC2)[nH]c2ncc3ccc(-c4cnn(C)c4)cc3c12 value_measured="≤ 10 nM"
structure_as_smiles=c1ncc(-c2ccc3cnc4cc(C5CCOCC5)sc4c3c2)s1 value_measured="≤ 10 nM"
structure_as_smiles=Cn1cc(-c2ccc3cnc4[nH]c(C5CCNCC5)cc4c3c2)cn1 value_measured="≤ 10 nM"
structure_as_smiles=c1ncc(-c2ccc3cnc4c(c3c2)CCO4)s1 value_measured="10 to 100 nM"
